Each recorded value in this set is attributed to patent US20140148503.

Measured Target: PSMA (prostate specific membrane antigen) (Homo sapiens, UniProt Q04609 Q04609:44-750)
Sequence (Q04609 44-750, one chain of several): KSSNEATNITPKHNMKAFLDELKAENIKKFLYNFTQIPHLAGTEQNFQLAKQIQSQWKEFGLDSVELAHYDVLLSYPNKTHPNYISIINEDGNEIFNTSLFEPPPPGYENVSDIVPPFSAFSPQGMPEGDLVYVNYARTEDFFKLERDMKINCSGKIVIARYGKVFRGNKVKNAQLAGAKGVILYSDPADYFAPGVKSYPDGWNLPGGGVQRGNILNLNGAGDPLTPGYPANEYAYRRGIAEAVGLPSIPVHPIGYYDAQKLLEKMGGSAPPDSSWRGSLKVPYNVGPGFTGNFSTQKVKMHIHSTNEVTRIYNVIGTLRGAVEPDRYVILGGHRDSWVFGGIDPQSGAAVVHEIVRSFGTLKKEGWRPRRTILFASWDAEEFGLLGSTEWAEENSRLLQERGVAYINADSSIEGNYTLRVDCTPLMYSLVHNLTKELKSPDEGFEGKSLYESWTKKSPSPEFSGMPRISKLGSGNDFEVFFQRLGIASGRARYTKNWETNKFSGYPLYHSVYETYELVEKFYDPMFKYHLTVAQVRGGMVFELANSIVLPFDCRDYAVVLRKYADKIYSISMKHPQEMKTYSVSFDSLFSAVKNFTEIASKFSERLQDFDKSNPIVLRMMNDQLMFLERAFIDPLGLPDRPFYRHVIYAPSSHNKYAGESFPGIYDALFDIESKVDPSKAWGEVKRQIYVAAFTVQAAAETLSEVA
Experimental Details: cell_activity; transwell migration; invasion IC50 75 nM (FIG. 15C)
Stated Conditions: tags: PSMA-expressing cells, migration and invasion assays; chain copies: 2
Readout Type: IC50 (nM)
Provide the reading as a plain figure in nM.

Request: Write down IC50 measured for item GGGACCGAAAAAGACCUGACUUCUAUACUAAGUCUACGUUCCC (ssRNA, 2'-F pyrimidines) [A9g]
Result: 18
